# Tested on: NCI-H226 lung
# assay-details: NCI tumour cell line growth inhibition, 48 h
Reported TGI values for the following compounds.

Here is how some compounds turned out for TGI.
compound	TGI
O=c1cc(/C=C/c2ccc(O)c(O)c2)oc(/C=C/c2ccc(O)c(O)c2)c1	28.1 µM
COc1ccc2c(c1)O/C(=C\c1cccc(OCC(=O)Nc3nc4c(s3)CCCC4)c1)C2=O	> 100 µM
Nc1ccn(Cc2ccc(C34CC5CC(CC(C5)C3)C4)c(O)c2)c(=O)n1	> 100 µM
COc1cc2c(cc1OC)C(N(C)C)C(c1ccccc1)=C2Cl (stereo unspecified)	56.4 µM
COCCN1C2=CCCCC2=Nc2c1nc(N)[nH]c2=O	> 100 µM

Qu. I'm curious: which TGI was measured for CCC(C(=O)O)c1ccc(OCc2ccccc2)cc1 (stereo unspecified) tested on NCI-H226 lung?
Ans. > 100 µM

Qu. I'm curious: which TGI was measured for C[C@@H](C(=O)Nc1ccc(Cl)cc1)C1CCC(c2ccnc3ccc(F)cc23)CC1 (stereo partly specified) tested on NCI-H226 lung?
Ans. > 100 µM

Qu. I'm curious: which TGI was measured for "O=Cc1cn(C(=O)c2ccccc2)c2ccccc12" tested on NCI-H226 lung?
Ans. > 100 µM

Qu. I'm curious: which TGI was measured for "CCCCOc1ccc(NC(N)=Nc2ccc(Cl)cc2)cc1" tested on NCI-H226 lung?
Ans. 29 µM

Qu. I'm curious: which TGI was measured for "COCOc1ccc(OC)cc1" tested on NCI-H226 lung?
Ans. > 100 µM

Qu. I'm curious: which TGI was measured for "CN(C)S(=O)(=O)c1ccc(NC(=O)COC(=O)c2ccc(S(=O)(=O)N3CCCCC3)cc2)cc1" tested on NCI-H226 lung?
Ans. > 100 µM

* * *

# Tested on: SF-268 CNS
# assay-details: NCI tumour cell line growth inhibition, 48 h; in the data active = GI50 below about 0.43 µM; inactive = the rest
Output constraint: value belongs to class 1 (active), class 0 (inactive)

compound	assigned-category
COC(=O)[C@]12CC[C@@H](C)[C@H](C)[C@@H]1C1=CC[C@@H]3[C@@]4(C)C[C@@H](OC(C)=O)[C@H](O)[C@@](C)(COC(C)=O)[C@@H]4[C@H](O)C[C@@]3(C)[C@]1(C)CC2	class 0
COC1(C(=O)N[C@@H](C)c2ccc(-n3cc(F)cn3)nc2)CCC(c2nc(C)cc(Nc3cc(C)[nH]n3)n2)CC1 (some centres not stated)	class 0
Cc1ccncc1.[O]=[Ge].[O]=[Ge].[O]=[Ge].[O]=[Ge].[O]=[Ge].[O]=[Ge][OH].[O]=[Ge][OH]	class 0
CNC(=O)c1cncc(/C=C/c2ccccc2C)c1	class 0
Cc1[c-]onc1C.Cc1[c-]onc1C.[Ag].[Ag].[NH-]S(=O)(=O)c1ccc(N=Nc2cc(N=Nc3ccc(S([NH-])(=O)=O)cc3)c3c(NC(=O)C(Cl)Cl)cccc3c2OC(=O)C(Cl)Cl)cc1	class 0

Qu. GET /call?item= "CN(C)S(=O)(=O)c1ccc(NC(=O)COC(=O)c2ccc(S(=O)(=O)N3CCCCC3)cc2)cc1" returns the recorded outcome of this test.
Ans. class 0

Qu. GET /call?item= CC(C)(C)C[C@H]1NC(C(=O)NCC[C@H](O)CO)[C@H](c2cccc(Cl)c2)[C@@]12C(=O)Nc1cc(Cl)c(F)cc12 (some centres not stated) returns the recorded outcome of this test.
Ans. class 0

Qu. GET /call?item= "ClCCn1c(CCl)nc2ccc(Cl)cc21" returns the recorded outcome of this test.
Ans. class 0

Qu. GET /call?item= "CCN(CC)c1ccc(C(=C2C=CC(=[N+](CC)Cc3cccc(S(=O)(=O)O)c3)C=C2)c2ccc(N(CC)Cc3cccc(S(=O)(=O)O)c3)cc2)cc1" returns the recorded outcome of this test.
Ans. class 0

Qu. GET /call?item= "COC(=O)/C=C/C=C(c1ccccc1)c1ccccc1" returns the recorded outcome of this test.
Ans. class 0

Qu. GET /call?item= "Cc1ccc2c(ccc3c[n+]4c5ccccc5ccc4n32)c1" returns the recorded outcome of this test.
Ans. class 1

Qu. GET /call?item= "CNC(=O)n1ccc2cc(Oc3ccnc(NC(=O)c4ccc(C5CCN(CCO)CC5)cc4)c3)c(OCCOC)cc21" returns the recorded outcome of this test.
Ans. class 0

Qu. GET /call?item= Nc1c(C(=O)Nc2cccc([N+](=O)[O-])c2)sc2nc3c(cc12)C(O)CCC3 (configuration not stated) returns the recorded outcome of this test.
Ans. class 0

Qu. GET /call?item= "CC(C)(C)C#CC1=C(Br)C(=O)OC1" returns the recorded outcome of this test.
Ans. class 0

Qu. GET /call?item= "COC(=O)[C@H](Cc1cn(C)cn1)NC(=O)[C@H](Cc1c[nH]c2ccccc12)NC(=O)Nc1cc(C(F)(F)F)cc(C(F)(F)F)c1" returns the recorded outcome of this test.
Ans. class 0

Qu. GET /call?item= COc1ccc(N2C(C)=C(C#N)C34C(=O)N(c5ccccc5)C(=O)C3=C(O)C=CC24O)cc1 (configuration not stated) returns the recorded outcome of this test.
Ans. class 0

Qu. GET /call?item= "Cc1ccc(/C=C2\CN(C(=O)OC(C)(C)C)C/C(=C\c3ccc(C)cc3)C2=O)cc1" returns the recorded outcome of this test.
Ans. class 1
